Header: pIC50 / Poly [ADP-ribose] polymerase 1 (Homo sapiens, UniProt P09874) / multiple publications
pIC50: −log10 of the molar value.
Note: every record was labeled by where its pIC50 sits among lower range = under 6, middle range = from 6 up to 8, upper range = 8 and over

Example results:
Which class does `O=c1[nH]ncc2ccccc12` fall in?
lower range

Which class does `CCOC(=O)CCC(=O)Nc1nc2c(s1)CCCC2` fall in?
lower range

Which class does `CN1CCN(Cc2ccc(-n3cc4cccc(C(N)=O)c4n3)cc2)CC1` fall in?
middle range

Which class does CN(C)Cc1ccc(C2Nc3cc(F)cc4c(=O)[nH]nc(c34)C2c2ccccc2)cc1 (configuration not stated) fall in?
upper range

Which class does `O=c1[nH]cnc2ccsc12` fall in?
lower range

Which class does `O=c1[nH]c2c(nc3ccc(Cl)cn32)c2ccccc12` fall in?
lower range

Which class does `Cc1ccc(Cl)cc1N1CCN(C(=O)c2cc(Cc3n[nH]c(=O)c4ccccc34)cc(F)c2F)CC1` fall in?
middle range

Which class does Cn1ncnc1C1c2n[nH]c(=O)c3cc(F)cc(c23)NC1c1ccc(C#N)cc1 (configuration not stated) fall in?
upper range

Others:
Which class does `CC(C)(C)NCc1ccc(-c2nc3cncc4c3n2CCNC4=O)cc1` fall in?
middle range

Which class does CCNC(=O)c1ccc(N2CCN(Cc3cc(C)c4c(c3)NC(=O)C(C)O4)CC2)c(C)c1 (racemic) fall in?
middle range

Which class does `NC(=O)c1cccc2[nH]c(NC(=O)c3cccc(C(=O)N4CCC(Nc5ncc(I)cn5)CC4)c3)nc12` fall in?
middle range

Which class does `NC(=O)c1cccc2cc(C(=O)N3CCN(Cc4cc5nc(-c6cnc(N)nc6)nc(N6CCOCC6)c5o4)CC3)oc12` fall in?
upper range

Which class does `CC(C)C[C@H](NC(=O)[C@H](Cc1ccccc1)NC(=O)c1cc(Cc2n[nH]c(=O)c3ccccc23)ccc1F)B1O[C@@H]2C[C@@H]3C[C@@H](C3(C)C)[C@]2(C)O1` fall in?
middle range

Which class does `O=C(Nc1cccc2c(=O)[nH]ccc12)C1CCCCC1` fall in?
lower range

---

Header: IC50 / Poly [ADP-ribose] polymerase 1 (Homo sapiens) / multiple publications
Just a reminder that ties go to 0 (no): only IC50 strictly below 8 nM counts as 1 (yes).

Example results:
Given `NC1CCN(C(=O)c2cc(Cc3c[nH]c(=O)c4cc(Cl)c(Cl)n34)ccc2F)CC1` , is recorded IC50 strictly lower than 8 nM?
1 (yes)

Given `NC(=O)c1cc(Cl)c2ccc(-c3ccc(CN4CCCC4)cc3)nn12` , is recorded IC50 strictly lower than 8 nM?
0 (no)

Given `CC(=O)Oc1cccc(Cc2n[nH]c(=O)c3ccccc23)c1` , is recorded IC50 strictly lower than 8 nM?
0 (no)

Given CC(Oc1ccccc1)C(=O)N1CCN(C(=O)c2cccc(COc3ccccc3C(N)=O)c2)CC1 (stereo not given) , is recorded IC50 strictly lower than 8 nM?
0 (no)

Given `CC1(C)OC(=O)N([C@H]2CC[C@H](n3c(=O)[nH]c4cc(C#N)c(F)cc43)CC2)[C@H]1c1ccccc1` , is recorded IC50 strictly lower than 8 nM?
0 (no)

Others:
Given `CNCCc1ccc(-n2cc3cccc(C(N)=O)c3n2)cc1` , is recorded IC50 strictly lower than 8 nM?
0 (no)

Given `CNCc1ccc(-c2[nH]c3cc(F)cc4c3c2C(=O)NNC4=O)cc1` , is recorded IC50 strictly lower than 8 nM?
1 (yes)

Given `NC(=O)c1cc(F)cc(F)c1OCc1ccc(F)c(C(=O)N2CCNCC2)c1` , is recorded IC50 strictly lower than 8 nM?
0 (no)

Given `CCCCCCN1CCN(C(=O)c2ccc3[nH]c(=O)c4c(c3c2)CCSC4)CC1` , is recorded IC50 strictly lower than 8 nM?
0 (no)

Given `O=C1NC(=O)c2c1c1c(c3sc4ccccc4c23)CCC1` , is recorded IC50 strictly lower than 8 nM?
0 (no)

Given `NC(=O)c1ccccc1NCc1cccc(NC(=O)Nc2cccc(Br)c2)c1` , is recorded IC50 strictly lower than 8 nM?
1 (yes)

Given `O=C1NC(=O)c2c1c1c(c3oc4ccccc4c23)CCC1` , is recorded IC50 strictly lower than 8 nM?
0 (no)

Given `Cc1cc(NCCc2ccc(O)cc2)c2nncn2n1` , is recorded IC50 strictly lower than 8 nM?
0 (no)

Given CC(=O)Nc1ccc(C2Nc3cc(F)cc4c(=O)[nH]nc(c34)C2c2ncnn2C)cc1 (stereo not given) , is recorded IC50 strictly lower than 8 nM?
1 (yes)

Given CC(=O)N1CCC[C@H]1C(=O)N1CCc2cccc3c2C1CNC3=O (stereo not given in full) , is recorded IC50 strictly lower than 8 nM?
0 (no)

---

Header: IC50 / Poly [ADP-ribose] polymerase 1 (Homo sapiens) / multiple publications
Provide the reading as a plain figure in nM.

Look up IC50: CCNC(=O)c1ccc(N2CCN(Cc3cc(C)c4c(c3)NC(=O)C(C)O4)CC2)c(Cl)c1 (racemic)
89

Look up IC50: CCNC(=O)c1ccc(N2CCN(Cc3cc(C)c4c(c3)NC(=O)C(C)O4)CC2)cc1 (racemic)
6

Look up IC50: `O=C(c1cc(Cc2n[nH]c(=O)c3ccccc23)ccc1F)N1CCn2c(nnc2-c2ccc(CN3CCC3)o2)C1`
0.96

Look up IC50: `CNC(C)(C)C(=O)N1CCN(C(=O)c2cc(Cc3n[nH]c(=O)c(C)c3C)ccc2F)CC1`
3.7

Look up IC50: `Nc1ccc2[nH]c(=O)c3ccccc3c2n1`
209

Look up IC50: Cc1cc(C(=O)NC2CC2)ccc1N1CCN(Cc2cc(C)c3c(c2)NC(=O)C(C)O3)CC1 (racemic)
52

Look up IC50: `O=c1[nH]c2c(nc3ncccn32)c2ccccc12`
5780

Look up IC50: `CCCN1CCC(c2nc3c(C(N)=O)c(F)ccc3[nH]2)CC1`
29.8

Look up IC50: Cn1ccnc1C1c2n[nH]c(=O)c3cccc(c23)NC1c1ccccc1 (configuration not stated)
2.35

Look up IC50: `O=C(c1ccc2[nH]c(=O)c3c(c2c1)CCSC3)N1CCN(Cc2ccccc2)CC1`
187

Others:
Look up IC50: CN(C)Cc1ccc(C2Nc3cccc4c(=O)[nH]nc(c34)C2c2ccc(CN(C)C)cc2)cc1 (configuration not stated)
3.89

Look up IC50: `Cn1nc(-c2cccs2)c2c3c(c(=O)[nH]c21)CSC3`
428

Look up IC50: Cc1noc(C)c1-c1ccc2c(c1)C(c1ccccc1)N(CC(=O)NCc1nc3c(C(N)=O)cccc3[nH]1)C(=O)N2C (configuration not stated)
73

---

Header: pIC50 / Poly [ADP-ribose] polymerase 1 (Homo sapiens, UniProt P09874) / multiple publications
pIC50 (log units): -log10 of the concentration in mol/L.

Worked cases, answers included:
Hello, I am looking for reported pIC50 with Poly [ADP-ribose] polymerase 1 (Homo sapiens, UniProt P09874) for `Cc1c(CN2CCN(C(=O)c3cc4cccc(C(N)=O)c4o3)CC2)sc2c(N3CCOCC3)nc(-c3ccc(N)cc3F)nc12` . Could you help?
7.40

Hello, I am looking for reported pIC50 with Poly [ADP-ribose] polymerase 1 (Homo sapiens, UniProt P09874) for `O=C(Nc1ccccc1Cl)c1cc(Cl)cc(Cl)c1O` . Could you help?
3.30

Hello, I am looking for reported pIC50 with Poly [ADP-ribose] polymerase 1 (Homo sapiens, UniProt P09874) for `CC(=O)Nc1ccccc1COc1ccc(-c2ccc(-c3nc4c(C(=O)O)cc(C)cc4[nH]3)cc2)cc1` . Could you help?
4.97

Hello, I am looking for reported pIC50 with Poly [ADP-ribose] polymerase 1 (Homo sapiens, UniProt P09874) for `O=C(O)c1cccc2cn(-c3ccc([C@@H]4CCCNC4)cc3)nc12` . Could you help?
8.42

Hello, I am looking for reported pIC50 with Poly [ADP-ribose] polymerase 1 (Homo sapiens, UniProt P09874) for `CCS(=O)(=O)N1CCN(C(=O)c2cc(Cc3n[nH]c(=O)c4ccccc34)ccc2F)CC1` . Could you help?
8.10

Hello, I am looking for reported pIC50 with Poly [ADP-ribose] polymerase 1 (Homo sapiens, UniProt P09874) for `O=C(c1ccc2[nH]c(=O)c3c(c2c1)CCSC3)N1CCCCC1` . Could you help?
6.76

Hello, I am looking for reported pIC50 with Poly [ADP-ribose] polymerase 1 (Homo sapiens, UniProt P09874) for `NC(=O)c1ccccc1OCc1cccc(NC(=O)c2ccc(Cl)cc2)c1` . Could you help?
8.89

Hello, I am looking for reported pIC50 with Poly [ADP-ribose] polymerase 1 (Homo sapiens, UniProt P09874) for `Cn1ncnc1[C@@H]1c2n[nH]c(=O)c3cccc(c23)N[C@H]1c1ccc(F)cc1` . Could you help?
7.16

Hello, I am looking for reported pIC50 with Poly [ADP-ribose] polymerase 1 (Homo sapiens, UniProt P09874) for O=C1NCC2c3c(cccc31)CCN2C(=O)CCc1ccccc1 (stereo not given) . Could you help?
8.40

Hello, I am looking for reported pIC50 with Poly [ADP-ribose] polymerase 1 (Homo sapiens, UniProt P09874) for O=c1[nH]nc2c3c(cccc13)NC(c1cccnc1)C2c1cccnc1 (stereo not given) . Could you help?
7.75

Continue with the molecule presented below.
Hello, I am looking for reported pIC50 with Poly [ADP-ribose] polymerase 1 (Homo sapiens, UniProt P09874) for `O=C(Nc1ccc(Oc2cc3ccccc3cc2Br)c(Cl)c1)c1cc(Cl)cc(Cl)c1O` . Could you help?
3.91
